Experiment: Selectivity index, ratio of CC50 for human HepG2(2.2.15) cells to IC50 for Hepatitis B virus infected in human HepG2(2.2.15) cells assessed as inhibition of viral DNA replication
Format: functional
Provide the recorded Ratio CC50/IC50 for the entries that follow.

[in] Determine from records and report Ratio CC50/IC50 for CC(=O)[C@]1(O)CC[C@@]2(O)[C@]1(C)[C@H](OC(=O)/C=C(\C)C(C)C)C[C@@H]1[C@@]3(C)CC[C@H](OC(=O)/C=C/c4cccc(Cl)c4)CC3=CC[C@]12O
[out] >103.6

[in] Determine from records and report Ratio CC50/IC50 for CC(=O)[C@]1(O)CC[C@@]2(O)[C@]1(C)[C@H](OC(=O)/C=C(\C)C(C)C)C[C@@H]1[C@@]3(C)CC[C@H](OC(=O)/C=C/c4ccc(Br)cc4)CC3=CC[C@]12O
[out] >80.6

[in] Determine from records and report Ratio CC50/IC50 for CC(=O)[C@]1(O)CC[C@@]2(O)[C@]1(C)[C@H](OC(=O)/C=C(\C)C(C)C)C[C@@H]1[C@@]3(C)CC[C@H](OC(=O)/C=C/c4cccc(F)c4F)CC3=CC[C@]12O
[out] >41.2

[in] Determine from records and report Ratio CC50/IC50 for CC(=O)[C@]1(O)CC[C@@]2(O)[C@]1(C)[C@H](OC(=O)/C=C(\C)C(C)C)C[C@@H]1[C@@]3(C)CC[C@H](OC(=O)/C=C/c4ccc(C(F)(F)F)cc4)CC3=CC[C@]12O
[out] >125.9

[in] Determine from records and report Ratio CC50/IC50 for CC(=O)[C@]1(O)CC[C@@]2(O)[C@]1(C)[C@H](OC(=O)/C=C(\C)C(C)C)C[C@@H]1[C@@]3(C)CC[C@H](OC(=O)/C=C/c4ccc(Cl)c(Cl)c4)CC3=CC[C@]12O
[out] >101.2
